protocolSummary: Human HepG2 cell viability assay in 384 well format
Type: toxicity, cell-based
Parameters: dose 125 nL, time 70.5 hour; concentration not given beside the values
settings: HepG2 cells, read-out: Inhibition
reportedMetric: cytotoxicity at 70.5 h (%)
Give your result in % as a bare value.

compound	unitText	cytotoxicity at 70.5 h
CN(C)c1ccc(CNC2=NCCCN2)cc1	%	13.3

Entry Oc1cc(C2CCCCN2CC2CC2)nc(-c2ccncc2)n1 (centres undefined) has what cytotoxicity at 70.5 h?
-10.4

What would you report for CN(C)c1ccc(C(=O)NCc2ccc(N3CCOCC3)cc2)cn1 ?
14.5

What would you report for CC(NC(=O)NCCCn1cncn1)c1ccccc1Cl (centres undefined) ?
-2.04

* * *

protocolSummary: Human HepG2 cell viability assay in 384 well format
Type: toxicity, cell-based
Set-up: dose 125 nL, time 70.5 hour; concentration not given beside the values
settings: HepG2 cells, read-out: Inhibition
cytotoxicity at 70.5 h overview
Give your result in % as a bare value.

Some solved entries appear below for comparison.
compound	quantitativeReadout
Cc1cc(-c2cccc(-c3ccn(CCCO)n3)c2)nc(N(C)C)n1	-5.08
N#Cc1c(N2CCCN(C3CCOCC3)CC2)nc2ccccn12	-2.26
CC(C)N(C)Cc1cnc2n1CCN(Cc1ccc(F)cc1)C2	-9.32
COc1cc(N2C[C@@H]3COC[C@]3(C(=O)NCc3ccccn3)C2)ncn1	-3.03
CC(C)NC(=O)[C@H]1CN(Cc2ccccc2)C[C@@H]1C(=O)c1ccccc1	-1.04
N#Cc1ccc(NCC(=O)Nc2ccn(Cc3cccnc3)n2)cc1	-9.9
Cc1cnc(CN(C)CC2CCCN2c2cccnn2)cn1 (stereo unspecified)	14.1
COc1cnc(N2CCN(C)CC2)nc1-c1ccnn1C	-6.6
CCN(Cc1cccc(C(=O)Nc2c(C)cnn2C)c1)[C@H]1COC[C@@H]1O	-2.17
O=C(c1cscn1)N1CCC2(CN(Cc3ccoc3)C2)C1	-9.97

Entry Cc1cc(NCC(C)C)ccc1C(=O)N(C)C has what cytotoxicity at 70.5 h?
13.4

What would you report for FC(F)(F)c1cc(C2CCCN(c3cnccn3)C2)n2ccnc2n1 (stereo unspecified) ?
-11.9

What would you report for Cc1cc(C)c(S(N)(=O)=O)cc1C(=O)NCC1Cc2ccccc2O1 (stereo unspecified) ?
-5.64

What would you report for CN1CCC(N(C)CCC(=O)N2CCC(Cc3ccc(F)cc3)CC2)C1 (stereo unspecified) ?
24.2

What would you report for NC(=O)c1c[nH]nc1NCc1ccc2c(c1)OCO2 ?
-18.7

What would you report for CN1CCCCC12Cc1ccccc1CN(C(=O)c1ccccc1)C2 (stereo unspecified) ?
-5.36

What would you report for CC[C@H]1N(Cc2ccc(OC)cc2)CCC[C@]12CCC(=O)N2C ?
-13

What would you report for CC(C)N1CCC(C(=O)NC[C@H]2CCc3ccccc3O2)CC1 ?
-17.4

What would you report for CN1CCC(c2n[nH]cc2-c2ccnc(N)c2)C1 (stereo unspecified) ?
0.193

What would you report for CCc1noc(CN2CCN(C(=O)OC(C)(C)C)C(C)C2)n1 (stereo unspecified) ?
2.89

What would you report for Cc1ccsc1CNC1CCCc2c1cnn2C (stereo unspecified) ?
-2.66

What would you report for O=C(O)[C@@H]1CN(Cc2cnc(C3CCCCC3)nc2)C[C@H]1C1CC1 ?
10.9

What would you report for CCOc1ccc(CC(CNC(=O)c2sccc2C)C(N)=O)cc1 (stereo unspecified) ?
-1.61

What would you report for Cc1nc(C(=O)N(C)C2CC(=O)N(Cc3ccccc3)C2=O)cs1 (stereo unspecified) ?
-5.65

What would you report for O=C([C@H]1CCCO1)N1CCC2(CC1)C(=O)N(CC1CC1)c1ccccc12 ?
-1.06

What would you report for O=c1[nH]c(-c2ccc(Cl)cc2)nc2c1CCNC2 ?
12.1

What would you report for Cc1cc(C)n(C2CN(CCC(N)=O)C2)n1 ?
0.833

What would you report for CN(CCOCC1CC1)C(=O)Nc1ccc([S+](C)[O-])cc1 (stereo unspecified) ?
-0.588

What would you report for CCc1nc(C2CCCN(C(=O)c3c[nH]c(C(C)C)n3)C2)no1 (stereo unspecified) ?
-10.9

* * *

cytotoxicity at 70.5 h overview
protocolSummary: Human HepG2 cell viability assay in 384 well format
Format: toxicity, cell-based
Set-up: dose 125 nL, time 70.5 hour; concentration not given beside the values
settings: HepG2 cells, read-out: Inhibition
Give your result in % as a bare value.

Some solved entries appear below for comparison.
compound	unitText	cytotoxicity at 70.5 h
Cn1nccc1CNC(=O)CCn1nc(C(F)(F)F)cc1C1CC1	%	-4.88
Fc1ccc2c(c1)C1(CCNCC1)CC2NC1CC1 (stereo unspecified)	%	14.1
OCC(CO)N1CCCC(Cc2ccnc(Nc3ccccn3)c2)C1 (stereo unspecified)	%	-14.9
COc1ccc(CN2CCn3cc(CN4CCN(C)CC4)nc3C2)cc1	%	-7.16

Entry CCc1nccn1C1CCCN(C(=O)c2ccc3[nH]cnc3c2)C1 (stereo unspecified) has what cytotoxicity at 70.5 h?
-5.72

What would you report for COC(=O)c1cccc(CNC(=O)c2cc(C(C)C)n(C)n2)c1 ?
27.4

* * *

protocolSummary: Human HepG2 cell viability assay in 384 well format
Assay type: toxicity, cell-based
Design: dose 125 nL, time 70.5 hour; concentration not given beside the values
settings: HepG2 cells, read-out: Inhibition
cytotoxicity at 70.5 h overview
Give your result in % as a bare value.

Some solved entries appear below for comparison.
molecule	unitText	cytotoxicity at 70.5 h
Cc1cc(C(=O)NCC2COCc3c(C)nnn3C2)no1 (stereo not drawn)	%	-6.83
COc1ccnc(N2C[C@@H](NS(=O)(=O)N(C)C)[C@H](C(C)C)C2)n1	%	9.46
N[C@H]1CN(C(=O)Cc2ccc(CO)cc2)C[C@@H]1C1CC1	%	34.3
Cc1noc(C)c1CN(Cc1cccs1)C1CCS(=O)(=O)C1 (stereo not drawn)	%	15.7

Now for another entry.
Entry Cn1c(=O)n(C)c2nc(Cl)c(CC(=O)c3ccccc3)n2c1=O has what cytotoxicity at 70.5 h?
-4.74

* * *

protocolSummary: Human HepG2 cell viability assay in 384 well format
Type: toxicity, cell-based
Parameters: dose 125 nL, time 70.5 hour; concentration not given beside the values
settings: HepG2 cells, read-out: Inhibition
cytotoxicity at 70.5 h overview
Give your result in % as a bare value.

compound	cytotoxicity at 70.5 h [%]
CCNC(=O)C1CCN(c2nc(-c3ccco3)nc3c2CCNCC3)C1 (configuration not stated)	-7.78
CCc1nc(C)c(C(=O)N2C[C@@H](C(=O)O)[C@H](C3CC3)C2)s1	-4.51
Cc1noc(C)c1CCC(=O)N1CCCCC1CNS(C)(=O)=O (configuration not stated)	-7.67
CNS(=O)(=O)c1ccc(C(=O)N2CCCC2c2ccccc2C)o1 (configuration not stated)	-1.59
COCC(=O)NCCn1nc(-c2cc(C)oc2C)ccc1=O	-2.12

Entry COc1c(Cl)cccc1NCc1csc(C)n1 has what cytotoxicity at 70.5 h?
-8.65

What would you report for COc1cc(N2CCC3(CC2)OCC(=O)NC3C)ncn1 (configuration not stated) ?
-4.57

What would you report for CC1CN(C(=O)C2(c3cccc(F)c3)CCOCC2)CCO1 (configuration not stated) ?
-3.81

What would you report for CC(C)(C)CC(=O)NCC(=O)NCC(O)c1ccc2ccccc2c1 (configuration not stated) ?
4.11

* * *

protocolSummary: Human HepG2 cell viability assay in 384 well format
Type: toxicity, cell-based
Set-up: dose 125 nL, time 70.5 hour; concentration not given beside the values
settings: HepG2 cells, read-out: Inhibition
reportedMetric: cytotoxicity at 70.5 h (%)
Give your result in % as a bare value.

compound	reportedMetric	quantitativeReadout
CC(C)CNC[C@H]1O[C@H](Cc2cc(-c3ccccn3)on2)CC[C@@H]1O	cytotoxicity at 70.5 h	0.841

Entry CCCN1CCC(CC(=O)N[C@H](C(=O)O)c2cccc(F)c2F)CC1 has what cytotoxicity at 70.5 h?
-8.2

What would you report for Cc1nnc(NC(=O)NC2CCCc3c2cnn3CCO)s1 (configuration not stated) ?
-6.14

What would you report for COc1ccc(C(NCc2cccc(O)c2)C2CC2)cc1 (configuration not stated) ?
16.8

What would you report for CC(=O)NC[C@@H]1C=C(C)[C@H](CC(=O)NCc2cccnc2)C[C@H]1C(C)C ?
4.62

What would you report for O=C(NC1CCCC1)[C@H]1C[C@H]2OCC[C@H]2N(Cc2ccoc2)C1 ?
-4.07

What would you report for CC(C(=O)N(C)C)S(=O)(=O)c1cc2c(cc1Cl)OCCO2 (configuration not stated) ?
-6.12

* * *

protocolSummary: Human HepG2 cell viability assay in 384 well format
Assay type: toxicity, cell-based
Set-up: dose 125 nL, time 70.5 hour; concentration not given beside the values
settings: HepG2 cells, read-out: Inhibition
reportedMetric: cytotoxicity at 70.5 h (%)
Give your result in % as a bare value.

Some solved entries appear below for comparison.
compound	quantitativeReadout
C[C@@H]1CC[C@@H](C)N1C(=O)c1cc(COc2ccccc2)[nH]n1	-0.483
Cc1nc(C)n(C2CCCN(C(=O)c3csnn3)C2)n1 (stereo not drawn)	-11.1
CC(C)(C)CN(CCC#N)C(=O)c1cccc(CN2CCCC2)c1	4.22

Entry CCCc1nc(CN(C)CC2CCN(CCO)CC2)no1 has what cytotoxicity at 70.5 h?
14.7

What would you report for Cc1cnc2n(c1=O)C(CC(=O)NCc1ccc(F)cc1)CS2 (stereo not drawn) ?
-6.08

What would you report for O=C(COCC1CC1)N1CCCC(n2cccn2)C1 (stereo not drawn) ?
2.78

What would you report for COc1cccc2ccc(CN3CCN(c4cccnc4)CC3)nc12 ?
7.51

What would you report for Cc1ccccc1OCCCC(=O)NCc1ccnc(O)c1 ?
-11.5

What would you report for COc1cccc(CN2C[C@@H](F)[C@@H](OCc3nc4cnccc4[nH]3)C2)c1 ?
2.35

What would you report for CC(C)NC(=O)C1CCc2nnc(CNC(=O)C3CC3)n21 (stereo not drawn) ?
-6.43

What would you report for Cc1ccc(C)c(CN2C[C@H]3CC[C@@H]2CN(C(=O)c2cccnc2)C3)c1 ?
1.01

What would you report for C1CCC(c2nc3c(c(N4CCN5CCCC5C4)n2)CCNCC3)C1 (stereo not drawn) ?
-5.97

What would you report for Cc1cc(C2CCCN(CCc3ccccn3)C2)n[nH]1 (stereo not drawn) ?
-17
